experimentalSystem: T1, cynomolgus monkey IL-33 expressed with a C-terminal hexahistidine tag (cynomolgus monkey)
T1 construct: also called MfIL-33-6His; Mf-IL-33-6His
T1 chain: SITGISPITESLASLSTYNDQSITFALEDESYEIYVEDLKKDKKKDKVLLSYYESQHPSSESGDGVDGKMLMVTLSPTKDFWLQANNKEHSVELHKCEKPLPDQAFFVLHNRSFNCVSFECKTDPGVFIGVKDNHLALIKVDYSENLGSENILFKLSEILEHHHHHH
assayMethodText: SPR 37C, pH6.0 chase, mAb captured
parameter: koff (s⁻¹)
Numeric answer only, unit s⁻¹ assumed.

Example cases with answers are listed next.
binder	koff, s⁻¹
H4H9667P (antibody, human IgG4, V domains shown, Human IgG4 Fc (H4H)) VH: EVQLVESGGGLVQPGGSLRLSCAASGFTFSTYSMHWVRQAPGKGLEYVSTINNNGDTTYYADSVKGRFTISRDNSKNTLYLQLGSLRPEDMAVYYCARQTYTSSWYGGFDSWGQGTLVTVSS VL: DIQMTQSPSSVSASVGDRVTITCRASQGITSWLAWYQQKPGKAPKLLIYAASNLQSGVPSRFSGSGSGTDFTLTITSLQPEDFATYYCQQANSLPFTFGPGTKVDIK	0.00268
H1M9559N (antibody, mouse IgG1, V domains shown, Human variable domains, mouse IgG1 Fc (H1M)) VH: QVQLVESGGGVVQPGRSLRLSCAASGFTFSSYGMHWVRQAPGKGLEWVAVIWYDGRNKYYTDSVKGRFTISRDNSKNTLYLQMDSLRAEDTAVYYCARERYISSYYGGFDPWGQGALVTVSS VL: DIQMTQSPSSVSASVGDRVTITCRASQGISSWLAWYQQKPGKAPKVLIYAASSLQSGVPSRFSGSGSGTDFTLTISSLQPEDFATYYCQQANSFPFTFGPGTKLDIK	0.00307
H4H9664P (antibody, human IgG4, V domains shown, Human IgG4 Fc (H4H)) VH: QVQLVESGGGVVQPGRSLRLSCAASGFTFSSYGLHWVRQSPGKGLEWVALISYDGSNKYYADSVKGRFTISRDNSKNTLYLQMNSLRPEDTAGYFCAKSLYTTSWYGGFDYWGQGTLVTVSS VL: DIQMTQSPSSVSASVGDRVTITCRASQGIRSWLAWYQQKPGKAPNLLIYAASSLQSGVPSRFSGSGSGTDFTLTISSLQPEDFATYYCQQANSFPPTFGPGTKVDIK	0.00193
H4H9659P (antibody, human IgG4, V domains shown, Human IgG4 Fc (H4H)) VH: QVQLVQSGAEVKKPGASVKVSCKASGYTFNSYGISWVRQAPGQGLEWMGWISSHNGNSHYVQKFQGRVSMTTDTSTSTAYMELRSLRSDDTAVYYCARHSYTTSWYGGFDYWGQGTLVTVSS VL: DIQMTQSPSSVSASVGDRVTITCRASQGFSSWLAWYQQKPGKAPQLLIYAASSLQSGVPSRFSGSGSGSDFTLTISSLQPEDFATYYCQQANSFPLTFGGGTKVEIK	0.00102

Now look at this one.
Inquiry: Looking for the measured koff of H4H9670P (antibody, V domains shown, Human IgG4 Fc (H4H)) VH: EVQLVESGGGLVQPGGSLRLSCAASGFTLSSYAMSWVRQAPGKGLEWVSAISGSGGSTYYADSVKGRFTISRDNSKNSLYLQLNSLRAEDTAVYYCAKTLYTTSWYGGFQHWGQGTLVTVSS VL: DIQMTQSPSSVSASIGDRVTITCRASQGISSWLAWYQQKPGKVPKLLIYAASSLQSGFPSRFSGSGSGTDFTLTISSLQPEDFATYYCQQTHSFPWTVGQGTKVEIK , can you help?
Reply text: 0.00165

Values from patent US20160362487A1
